# Assayed system: UniProtKB Q9Y5Y9
# Sequence (Q9Y5Y9 whole entry): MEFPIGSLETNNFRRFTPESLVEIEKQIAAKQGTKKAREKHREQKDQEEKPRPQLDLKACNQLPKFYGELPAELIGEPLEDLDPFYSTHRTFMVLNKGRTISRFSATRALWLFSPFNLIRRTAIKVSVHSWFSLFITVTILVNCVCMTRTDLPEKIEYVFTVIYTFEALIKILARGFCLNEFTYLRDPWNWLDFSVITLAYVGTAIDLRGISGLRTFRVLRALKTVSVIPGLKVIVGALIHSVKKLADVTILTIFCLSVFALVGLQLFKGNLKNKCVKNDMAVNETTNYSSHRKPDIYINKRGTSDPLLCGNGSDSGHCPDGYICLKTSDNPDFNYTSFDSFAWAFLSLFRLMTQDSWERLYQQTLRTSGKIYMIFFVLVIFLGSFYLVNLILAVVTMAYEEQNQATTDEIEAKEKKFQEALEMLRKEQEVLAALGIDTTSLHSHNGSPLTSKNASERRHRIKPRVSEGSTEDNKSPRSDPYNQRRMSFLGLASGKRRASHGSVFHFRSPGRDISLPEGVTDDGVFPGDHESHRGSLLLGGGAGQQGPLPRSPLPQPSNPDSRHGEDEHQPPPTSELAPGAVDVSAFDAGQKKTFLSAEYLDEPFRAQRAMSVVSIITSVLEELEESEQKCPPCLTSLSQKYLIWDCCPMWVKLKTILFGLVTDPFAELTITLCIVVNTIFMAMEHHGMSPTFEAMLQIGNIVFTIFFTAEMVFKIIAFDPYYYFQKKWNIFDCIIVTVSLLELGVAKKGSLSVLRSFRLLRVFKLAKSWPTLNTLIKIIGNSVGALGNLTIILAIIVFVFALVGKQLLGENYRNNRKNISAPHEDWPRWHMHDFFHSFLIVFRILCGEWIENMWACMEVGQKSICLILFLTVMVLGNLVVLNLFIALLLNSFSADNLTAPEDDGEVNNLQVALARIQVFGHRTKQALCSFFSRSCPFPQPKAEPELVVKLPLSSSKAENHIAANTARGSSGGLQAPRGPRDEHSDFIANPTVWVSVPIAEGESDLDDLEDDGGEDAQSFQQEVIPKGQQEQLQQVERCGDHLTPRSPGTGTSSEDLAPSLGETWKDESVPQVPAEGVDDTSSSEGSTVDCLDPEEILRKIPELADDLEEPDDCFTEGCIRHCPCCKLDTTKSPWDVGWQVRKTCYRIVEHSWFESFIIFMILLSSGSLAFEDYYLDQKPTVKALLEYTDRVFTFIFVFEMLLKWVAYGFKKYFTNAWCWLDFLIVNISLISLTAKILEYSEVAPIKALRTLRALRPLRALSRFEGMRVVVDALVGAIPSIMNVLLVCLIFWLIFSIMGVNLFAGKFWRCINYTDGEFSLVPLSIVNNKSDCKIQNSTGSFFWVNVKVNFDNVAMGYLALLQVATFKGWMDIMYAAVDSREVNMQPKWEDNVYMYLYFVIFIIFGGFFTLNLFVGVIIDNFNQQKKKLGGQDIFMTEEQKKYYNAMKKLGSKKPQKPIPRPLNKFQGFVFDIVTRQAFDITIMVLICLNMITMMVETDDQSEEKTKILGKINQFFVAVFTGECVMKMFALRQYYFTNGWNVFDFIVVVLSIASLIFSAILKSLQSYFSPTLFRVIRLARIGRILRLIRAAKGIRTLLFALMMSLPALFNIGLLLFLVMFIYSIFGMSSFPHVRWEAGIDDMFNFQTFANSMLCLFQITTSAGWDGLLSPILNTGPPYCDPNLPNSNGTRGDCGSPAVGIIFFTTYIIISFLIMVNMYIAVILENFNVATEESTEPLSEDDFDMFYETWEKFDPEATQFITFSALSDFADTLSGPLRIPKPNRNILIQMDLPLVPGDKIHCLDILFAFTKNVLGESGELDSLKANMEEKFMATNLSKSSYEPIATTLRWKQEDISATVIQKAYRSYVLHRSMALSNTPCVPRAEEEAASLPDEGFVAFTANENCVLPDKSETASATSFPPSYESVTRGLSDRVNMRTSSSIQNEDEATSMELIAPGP
# Experiment summary: Nav1.8 Qube® Assay (automated 384-well patch-clamp, inhibition of sodium current)
# Condition description: human NaV1.8 channels stably expressed in HEK 293 cells, room temperature
pIC50: −log10 of the molar value.
Attribute measured: pIC50

Some entries whose results are on file:
[
  {
    "Molecule": "C[C@@H]1C(=O)NCCN1C(=O)NC(C)(c1ccc(F)c(Cl)c1)C1CC(C(F)(F)F)C1 (single isomer, unassigned) [Example 48D]",
    "pIC50": 6.29
  },
  {
    "Molecule": "C[C@@H]1C(=O)NCCN1C(=O)NC(c1ccc(F)c(Cl)c1F)[C@@H]1C[C@@H]2[C@H](C1)C2(F)F (single isomer, unassigned) [Example 11A]",
    "pIC50": 6.06
  },
  {
    "Molecule": "C[C@@H]1C(=O)NCCN1C(=O)NC(c1ccc(F)c(Cl)c1F)[C@H]1CC[C@H](C(F)(F)F)CC1 (single isomer, unassigned) [Example 9B]",
    "pIC50": 9.10
  },
  {
    "Molecule": "C[C@@H]1C(=O)NCCN1C(=O)NC(c1ccc(F)c(Cl)c1)C1CCC2(CC1)CC2(F)F (single isomer, unassigned) [Example 19A]",
    "pIC50": 8.24
  },
  {
    "Molecule": "C[C@@H]1C(=O)NCCN1C(=O)NC(c1ccc(F)c(Cl)c1)C1CCC2(CC1)CC2(F)F (single isomer, unassigned) [Example 19B]",
    "pIC50": 8.49
  },
  {
    "Molecule": "C[C@@H]1C(=O)NCCN1C(=O)NC(c1cc(F)c(F)c(F)c1)[C@H]1CC[C@H](C(F)(F)F)CC1 (single isomer, unassigned) [Example 6A]",
    "pIC50": 6.63
  },
  {
    "Molecule": "C[C@@H]1C(=O)NCCN1C(=O)N[C@H](c1ccc(F)c(Cl)c1)C1CCC(C(F)(F)F)CC1 (single isomer, unassigned) [Example 5A]",
    "pIC50": 7.39
  }
]

(I) COC1CC(C(NC(=O)N2CCNC(=O)[C@H]2C)c2ccc(F)c(Cl)c2F)C1 (single isomer, unassigned) [Example 40A]
(II) C[C@@H]1C(=O)NCCN1C(=O)NC(c1ccc(F)c(Cl)c1F)C1CC(C2CC2)C1 (single isomer, unassigned) [Example 21C]
(III) C[C@@H]1C(=O)NCCN1C(=O)NC(c1ccc(F)c(C(F)(F)F)c1)C1CCC(C(F)(F)F)OC1 (single isomer, unassigned) [Example 60A]
(IV) C[C@@H]1C(=O)NCCN1C(=O)NC(c1ccc(F)c(Cl)c1F)C12CC(C(F)(F)F)(C1)C2 (single isomer, unassigned) [Example 30B]
(V) C[C@@H]1C(=O)NCCN1C(=O)NC(c1ccc(F)c(Cl)c1F)C1CCC(F)(F)C1 (single isomer, unassigned) [Example 42A]
QUERY: Order by pIC50, ascending. Provide your answer as the labels ordered per the instruction.
RESULT: I, V, II, III, IV
(I: 4.93, V: 6.49, II: 7.22, III: 8.00, IV: 8.51)
